# Method Summary: soluble fraction after stress (log2 fold change); higher = more stays soluble; pooled small domains, quantitative proteomics;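 also: 20 min heating vs room temperature control held 20 min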
# Setup Conditions: stress: 75 degC
Parameter Measured: soluble fraction (log2)
Give bare numbers.

Solved cases below.
HMDFITPYEIEQGQYEGAELYEDGKFEEAFSLSSIAAQRGMKTAQYLLGIMFLKGEYVDQSLAIGMAW : -0.52
HMTVLPTENDAKALVGLNEDEAVKIIEGNGWTYRIGSRDGEQFMLTEDYSTSRLTLGIEKSIVVTATI : -0.543
HMPTLNIVDGHIAASDGVRILSIHNVTGRRYATSSKLPAGIYIVVLMPAKAETPLTVKVIVEA : -1.42
HMYELSDTEWKIIEQVGLGASNKEIAASLHFSEGTIRNYLSVILDKLSLRDRTQLAILYVKMN : -1.11

**Q:** Give me measured soluble fraction (log2), please, for this sequence: HMEDDRLIQNLLLTAKNLVMDVGRMDESALAENEDTVRTAMLFALGYLYENRSNPDYHKLTLNLRSILFA
**A:** -0.38

---

# Method Summary: soluble fraction after stress (log2 fold change); higher = more stays soluble; pooled small domains, quantitative proteomics
# Setup Conditions: stress: 75 degC
For each of the sequences below, state its soluble fraction (log2).
Answers are plain numbers.

Solved cases below.
HMIKYTIEELGELTGFTRRTIRYYVQEGLIDPPAGRGRGGFYYDSHVQQLLRIKSFQEKGIGITAMVSLM : -2.32
HMRSGEDESFSAGLLEYPHYTRPAEFEGHRIPDILTSGDHAKVDAWRQEMSEHITRERRPDLWEMYKKK : 0.13
HMGGYVVVGDKDGFWSVVSTPVSKAKAEELLKDTTFPKGEKGKIVSVAEAMSHKKVIGKEYLESGGT : 0.0752

Hi there! I need soluble fraction (log2) for each item below, if you can.
1. HMKLISVAVMRASDAAEIAGGTDSKTLMYRAGLGLFQSWDWHGKIDIVTGSGNNAGDGYVLALLL
2. HMKGWPDREQAEKIWQQGIDYAIEHHTMSPQIVKEYIFHTQGIARSAALIAARLPDMDTEKAYVLGLLHD
3. HMLSDEEKMAALNEQARQRGFTISPGVLPYLITHYQRDMHSLSMILDALDRYSLQTKRTITLPLLHDLLQQ

**A:**
1: 0.14; 2: -0.377; 3: -1.04

---

For each of the sequences below, state its soluble fraction (log2).
# Method Summary: soluble fraction after stress (log2 fold change); higher = more stays soluble; pooled small domains, quantitative proteomics
# Setup Conditions: stress: 75 degC
Give bare numbers.

HMSDTSAIEKIIDEVLSDESSQKAINDIKNGNEKVYGFLVGQVMKKSQGKANPGLVQKMLREKIAK : 0.116
HMDDILAYEIEDKEDLENLSLGKSIGINLNKLIKPTLNSFDNSLLFLSKKGNIISYGKLNGDLFKPKKVL : 0.346
HMLMLTPGQIAQTLDVSTATVRRWSARYARHLSPNTPGKKRSYTVDDLAVLTRVRDLSATGTPLAQIDQAL : -2.11
HMAGPGAEVVDRLIAVLTGERPATAADQVLLSILKGLGIGGVVLPSERTGLGWSGLYQRVKEITDMN : -1.61
HMQVEYTRGELLQDLKEENVLYATITPSRETPTGEVDFVFKDKSIKTLYVTDVSEIEGLLMDYGIDPEVKK : -0.454

Let us move to another entry and its soluble fraction (log2).
**Q:** Give me measured soluble fraction (log2), please, for this sequence: HMVSRAFEEETVKRAESGNQEAALFALELAIREIEHSYEKSKIIDYFVSKVRLFLDNGVSLERALGIH
**A:** 0.196

---

For each of the sequences below, state its soluble fraction (log2).
# Method Summary: soluble fraction after stress (log2 fold change); higher = more stays soluble; pooled small domains, quantitative proteomics
# Setup Conditions: stress: 75 degC
Answers are plain numbers.

Solved cases below.
HMSNEKVVKFAQELLVDEERSAISPALISAKIDQVLMFKPAWNEGLDRDAVVNELVRRFSIW : -1.24
HMRGADNAASILKEVGPHPEDGKPITVRSGRYGPYVKHGTTNATLPKDIKPEEITLDEAIALINERVAKG : 0.018
HMFEFFKGIYSISLLKKDGIFFVTFKDENKEAVKHIFPEKPTALELGIKVMEMFEYKERYDGII : -0.455
HMFLSSEERRERIIEVLRQQDEVTVVELSHRLGVSEVTTRKDLQQLEEQGYLTRVRGGAVVSGRGQL : -0.0348
HMTSFDVMLKSAGANKLAVVKLVKELTGLGLKEAKDIVDAAPSKVKEGVSKEEAEELQKQLTGAGAEVEL : -0.113
HMDSLSGQQGRVLEEINGFLQTGKVLLNGMEWSAVSKQPEDILPVDTEVVVVRVEGAHLVVKKA : -0.286
HMSWNIHEAVEYYKGQDAPQNQFALVELLKEVQEHNGGVLTDIAVEEIAALLNTKVTFLNAVIKRYPSLK : -0.661

**Q:** Give me measured soluble fraction (log2), please, for this sequence: HMEGVSPQTVQEHIRRFIAAEDPASPLSDEALREALGNLGINASRRTVAKYRGEMGIPSSAQRKR
**A:** -0.0573

---

For each of the sequences below, state its soluble fraction (log2).
# Method Summary: soluble fraction after stress (log2 fold change); higher = more stays soluble; pooled small domains, quantitative proteomics
# Setup Conditions: stress: 75 degC
One number for each entry.

Solved cases below.
HMDSVVPNVVGMTAEKANKALTDAGLNVKITGATIGSGAVVHSQSIPAGTVTSKGTVVSIEMRFAAAEGD : -0.242
HMYKTKVDIAYDMLMERITEGVYKPGEKLVITHISKELGISDIPVREAIRRLESEGYVKILPNQGAIVYD : -0.671
HMEPDDLTVIKGIGPVAAKDLNEQGIITFAQLAKLSDKDVAKIDEHMPFSADQIKDWREQAKELAK : 0.739
HMEGLDDKTKIILFAGDKKEQEYSLADLKSKLNITENLTESELIKLLEKQGYVLDVNANNEFMFKKD : -0.012
HMEDADERRALEVLNQLLDLPEREQEAALAALSLPPALARRVRSLLSVQTRAADLFDTAPSP : 0.0142

Hi there! I need soluble fraction (log2) for each item below, if you can.
1. HMFLPETEVKSFFHRGITKISPSLAMDIADFFRMPFAVILKRALALEVISDEQYRSFMTVKPEHV
2. HMDLKHNQITMRELLRNKQAYLLLYKEFPMFMTPAILQNIRPLTLQQIIQMVRPYISRPKLNMLLEQLENI
3. HMPLTAASLQTYLRGVDYPASKQDLIAHARKSDAPEDAITVLEQYSEQTYRSAADVSAEFGS

**A:**
[0.137, 0.164, 0.109]

---

# Method Summary: soluble fraction after stress (log2 fold change); higher = more stays soluble; pooled small domains, quantitative proteomics
# Setup Conditions: stress: 75 degC
For each of the sequences below, state its soluble fraction (log2).
One number for each entry.

Solved cases below.
HMVGKGASIILDRVNLPQYLEKFNEDGFDTIESLKNLNEIDLKEMGVKKGHIRVILNYLHEEY : -0.421
HMATEWLSSKEAAQRLGVSAATLYAYVSRGLLRSEGSSGQRERRYRADDVAQLRRRREVGRKAESIAASTL : -1.31
HMTLTEQQITDNYKELRKIINDTFSGLRLDKLNHMYDDLEDRMVVAPASSVEHYHNSKVGGYVEHILHVI : -0.124
HMERFVVISKDKYANLREEASTNSKVLAKVDNSYLIYNTNTYNENKDWYSVQIERDGNYYQVGYIHKSQL : -1.61
HMIAASPVGGIDRVLELLDARGQRVAWIEASGTEGGQRLRLGWIDAQGAERHGAWVPWSADDLLLYA : -0.739
HMRNNKLRRANKLKTEFENLPHIGKKRAHVLLKAFGSTENLKMTTAQALSEAAKISLKQAEEVLEAVRG : -0.466
HMNLQGIISQKAIVTQTIEPYETGVAKLNGEEWTAMSKDETRIEAGKLVEVVAIEGVKLIVKEVS : -0.311
HMISKRFQVDEENSNNRVDIFLANNLDSISRGIVQQLILDGKVLVNGETVKRNHLLKTNDEVDISFEI : 0.349

Hi there! I need soluble fraction (log2) for each item below, if you can.
1. HMSELPLTQKVAIVMVALGEEASGEVMKHLSDYEIEEITQAIAGLKNISVELMDQILEEYEQHLIAG
2. HMEIPTEEILKQKLYYSISEVASWFKVNTSLLRYWENEFDILQPRKTRKGDRLFRVEDIKNLQLIYLL
3. HMISEKEIKIIEDILARWNGKLTWDDFTSKVAKKLNLPSLSKFTLMGYPEIKQAFLTRKQTLK
4. HMNNLTEEAINHLVLEVKNVLLTDALFLGKATDSQLMLRIKETIDQRNGQYNIGMNDRERIARRVFARLR

**A:**
1: -0.515; 2: 0.26; 3: -0.53; 4: -2.19

Hi there! I need soluble fraction (log2) for each item below, if you can.
1. HMKNINTNIGKNLKRIRKLRGLTIDALATSSGVSKSMISEIERGIRNPSITIIWSLANALKTPLNYFLKE
2. HMDEEDVLNELIRRLALTADDRLLLSLSYEDGLSSRKIATLLETSAATVQRRLAGLHHQLEQALRVMGLA
3. HMIYKLTLLRDLPEAKAGFDFYLRGGLASHDGEEWFSWVTREPIYARLYWLYVEKREEWVLVEETDI
4. HMPKYLNIYHELAQRIQEGALPAETKLPSETELMQEFEASRGTVRKAIDALQEKGFVRKHQGKGVFVLSQ
5. HMVQMKIRAYELEPNDFFIKQNMTYRVMRIQNGMIYAKHLLNSTPITFGAKSMEFVLWTGKYS
6. HMDGRIRFRHAALHDPDVAARLHDYLTTSLPGVRSARVNSQTGSLLLEYDPEVLDRSTLLDLAARAESLL

**A:**
1: -1.46; 2: -0.323; 3: -4.51; 4: -0.00712; 5: -2.21; 6: -0.493

Hi there! I need soluble fraction (log2) for each item below, if you can.
1. HMVMAELRISVDRLQIGNYIKLPLSWRDHPFLLSSFMIKKEEQIQLIRQLRLKHVFIIPEKSDAPPKPA
2. HMDAINYEDFQLLIKQRGSFKVAFEDIMFSTKVAIEKKEDFYDFVTKLIDNGFNNMAYNYLEGFQD
3. HMQSKDDLLDTFRVVKGNAALLNDQNKKLIRSLKVSSFGFTGITDQAAEVKKEMPDVLLEKASIEDILF
4. HMKNTYTVVSGDTLWGIASRKLGGGSNWTKIYDANAATIESVANRRRGGRGSDHGHWIYPGTVLTI
5. HMTPTITNALEEAEKAVSEVQEGKKEIELTPQGAYIRHLQHAIADRYGISSTSTGRDPKRKVIIY

**A:**
1. -4.2
2. -2.07
3. 0.0597
4. -0.298
5. -0.578
